Test system: CCRIS mutagenicity, Ames/micronucleus/aberration tests
Test: CCRIS mutagenicity studies
Conditions: Test System: AMES SALMONELLA TYPHIMURIUM; Strain/Indicator: TA1538; Metabolic Activation: NONE; Method: STANDARD PLATE
The source made the active and inactive calls. No rule for the calls is given here.
Response enum: 1 for active, 0 for inactive

Recorded results for 4 compounds are shown here.
Nc1ccccc1    0
CN=C=O    0
COc1cc(CNC(=O)CCCC/C=C/C(C)C)ccc1O    0
Nc1n[nH]c(=S)s1    0

Dear colleague, could you share the recorded outcome for O=C(NC(Cc1cc(=O)[nH]c2ccccc12)C(=O)O)c1ccc(Cl)cc1 (configuration not stated) when you have a moment? 0

And then `CC(=O)[C@]1(O)Cc2c(O)c3c(c(O)c2[C@@H](O[C@H]2C[C@H](N)[C@H](O)[C@H](C)O2)C1)C(=O)c1ccccc1C3=O` , what is it? 1

And then `O=C/C=C/c1ccccc1` , what is it? 0

And then `C=O` , what is it? 0

And then `[Cl][Sn][Cl]` , what is it? 0

And then CCCCC(CC)COC(=O)c1ccc(C(=O)O)cc1 (configuration not stated) , what is it? 0

And then `Cc1c(-c2cnccn2)ssc1=S` , what is it? 0

And then `Cc1cc(/C=C/c2ccc3cc(N(C)C)ccc3[n+]2C)c(C)n1-c1ccccc1` , what is it? 0
